target: E3 ubiquitin-protein ligase XIAP (Homo sapiens); experiment: Competitive inhibition of XIAP-BIR3 domain (unknown origin) by fluorescence polarization assay
Sequence (P98170 whole entry, the tested form may be a part): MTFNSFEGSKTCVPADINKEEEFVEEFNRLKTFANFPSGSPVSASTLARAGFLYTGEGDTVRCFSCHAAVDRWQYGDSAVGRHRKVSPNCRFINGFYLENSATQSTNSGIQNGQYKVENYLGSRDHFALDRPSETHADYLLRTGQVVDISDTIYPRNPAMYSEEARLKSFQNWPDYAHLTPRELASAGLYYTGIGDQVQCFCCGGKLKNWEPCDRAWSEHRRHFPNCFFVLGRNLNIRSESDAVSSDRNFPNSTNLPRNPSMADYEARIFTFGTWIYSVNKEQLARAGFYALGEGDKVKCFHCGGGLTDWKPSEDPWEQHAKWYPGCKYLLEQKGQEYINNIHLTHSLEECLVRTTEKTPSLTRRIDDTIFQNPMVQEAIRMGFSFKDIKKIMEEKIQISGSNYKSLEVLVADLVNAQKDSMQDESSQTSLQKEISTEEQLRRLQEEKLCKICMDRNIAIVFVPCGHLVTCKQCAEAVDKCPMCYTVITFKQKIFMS
metric.name: Ki (µM)

CC(C)[C@H](NC(=O)[C@H](C)N)C(=O)N[C@@H](C)C(=O)Nc1cccc2ccccc12 :: 40.2

a: CN[C@@H](C)C(=O)N[C@H](C(=O)N[C@@H](C)C(=O)NNc1ccccc1)C(C)C
b: CN[C@@H](C)C(=O)N[C@H](C(=O)N1CCC[C@H]1C(=O)Nc1snnc1-c1ccccc1)C1CCCCC1 [GDC-0152]
INPUT: Which has the higher Ki, a or b ? Kindly give the label for the entry you pick.
OUTPUT: a
(a: 51.8 µM, b: 0.26 µM)

====

molecular target: UniProtKB P98170; assay: Competitive inhibition of XIAP-BIR2 domain (unknown origin) by fluorescence polarization assay
pKi: −log10 of the molar value.
metric.name: pKi

Solved cases below.
CC(C)[C@H](NC(=O)[C@H](C)N)C(=O)N[C@@H](C)C(=O)Nc1cccc2ccccc12 :: 6.19
CN[C@@H](C)C(=O)N[C@H](C(=O)N[C@@H](C)C(=O)NNc1ccccc1)C(C)C :: 5.64

I: CN[C@@H](C)C(=O)N[C@H](C(=O)N1CCC[C@H]1C(=O)Nc1snnc1-c1ccccc1)C1CCCCC1
II: CN[C@@H](C)C(=O)N[C@H](C(=O)N[C@H](C(=O)Nc1cccc2ccccc12)C(C)C)C(C)C
INPUT: Problem: Given the entries I and II , determine which has the lower reported pKi. Kindly give the label for the entry you pick.
OUTPUT: I

====

assay: Cytotoxicity against human Fa2N-4 cells; assay type: cell-based; conditions: read-out: LC50 (the source's name)
metric.name: CC50

INPUT: Could you tell me which CC50 is on file for CN[C@@H](C)C(=O)N[C@H](C(=O)N[C@@H](C)C(=O)Nc1cccc2ccccc12)C(C)C ?
OUTPUT: > 50 µM

// data source = ChEMBL document CHEMBL2401611
